Some variants, each annotated with its measured self-cleavage.
B1: HDV Ribozyme (parent)
chain: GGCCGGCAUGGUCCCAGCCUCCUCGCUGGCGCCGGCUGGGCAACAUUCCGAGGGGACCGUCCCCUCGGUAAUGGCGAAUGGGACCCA

Variants of: B1
Assay: self-cleavage, relative activity (ratio to wild type); higher = more cleavage; co-transcriptional
// return a plain number; no unit text

# example entries with known answers
C4U G35U = 0.162
G25U G68U = 0.225
C30G A51G = 0
C48U C58U = 0.904

QUERY: Supply reported self-cleavage belonging to this variant: C7A A43G
RESULT: 0

QUERY: // Input: G25C U27A . Output its self-cleavage only.
RESULT: 0.175

QUERY: Using the record for G10A G53U , state its measured self-cleavage.
RESULT: 0.857

QUERY: Supply self-cleavage value. Item: C14A A43G
RESULT: 0

QUERY: Input C48G G53U , output reported self-cleavage.
RESULT: 0.893

QUERY: State, in one line, measured self-cleavage of U60C G68C
RESULT: 0.755
